tested on: paclitaxel binding site on tubulin; experiment: Paclitaxel binding site inhibition assay ([3H]paclitaxel displacement from microtubules); parameters: species or system bovine; conditions: 4 μM test agent, 2 μM [3H]paclitaxel, microtubules from 2 μM tubulin and 20 μM dideoxyGTP
Label 1 for high-side Displacement of [3H]paclitaxel (%) (at or above 20%) and 0 for low-side Displacement of [3H]paclitaxel (%) (below it).

COMPOUND	CLASS_NAME
C=C/C=C\[C@H](C)[C@H](OC(N)=O)[C@@H](C)[C@H](O)CC/C=C\[C@H](C)[C@H](O)[C@@H](C)/C=C\CC[C@@H]1O[C@@H](OC)[C@H](C)[C@@H](OCOC)[C@H]1C	0
CC(=O)O[C@H]1C(=O)[C@@]2(C)[C@H]([C@H](OC(=O)c3ccccc3)[C@]3(O)C[C@H](OC(=O)[C@H](O)[C@@H](NC(=O)c4ccccc4)c4ccccc4)C(C)=C1C3(C)C)[C@]1(OC(C)=O)CO[C@@H]1C[C@@H]2O [paclitaxel, reference compound]	1
C=C/C=C\[C@H](C)[C@H](OC(N)=O)[C@@H](C)[C@H](O)CC/C=C\[C@H](C)[C@H](O)[C@@H](C)/C=C\CC[C@@H]1OC(=O)[C@H](C)[C@@H](OCOC)[C@H]1C	1
C=C/C=C\[C@H](C)[C@H](OC(N)=O)[C@@H](C)[C@H](O)[C@@H](C)C/C(C)=C\[C@H](C)[C@@H](O)[C@@H](C)/C=C\[C@@H](O)C[C@@H]1OC(=O)[C@H](C)[C@@H](O)[C@H]1C [discodermolide, (+)-discodermolide]	1
C=C/C=C\[C@H](C)[C@H](OC(N)=O)[C@@H](C)[C@H](O)CC/C=C\[C@H](C)[C@H](O)[C@@H](C)/C=C\CC[C@@H]1OC(=O)[C@H](C)[C@@H](O)[C@@H]1C	1
